Data origin: BigSolDB 2.1

Details: in PEGDME 250, 308.15 K
Please provide measured solubility (mole fraction) for the entries that follow.
Lab note: record the figure alone, no unit after it.

solubility (mole fraction) lookup needed for CC(=O)Nc1ccc(O)cc1 , thanks. 0.216

Recorded solubility (mole fraction) for O=C(O)c1ccccc1O , please? 0.45

----------
Conditions: in water, 298.15 K
Exercise: state measured solubility (mole fraction) for each of the molecules provided.
API note: the answer field is a bare number with no unit suffix.

Need solubility (mole fraction), item O=C(O)c1ccccc1O 0.000251

Tell me the measured solubility (mole fraction) of CC(=O)Nc1ccc(O)cc1 , please. 0.00201

----------
For each entry below, report its solubility (mole fraction) value.
Conditions: in water, 303.15 K
Answer with the value's number alone.

If you can, please state the reported solubility (mole fraction) value of O=C(O)c1ccccc1O . 0.000306

Any idea what solubility (mole fraction) was measured for CC(=O)Nc1ccc(O)cc1 ? 0.0022
